- Test system: Aspergillus flavus
- test: Antifungal activity against Aspergillus flavus after 24 hrs by two fold serial dilution based spectrophotometric analysis
- Assay type: functional
attribute-measured: MIC (µg/mL)
Express your answer in µg/mL, writing the number without its unit.

>>> df
                                smiles_text  value_unit  value_observed
0  Cc1ncc([N+](=O)[O-])n1CCCCCOCc1c(-c2ccccc2)nc2sc3ccccc3n12       µg/mL              16
1  O=[N+]([O-])c1cn(CCCOCc2c(-c3ccccc3)nc3sc4ccccc4n23)cn1       µg/mL              16
2  CCOc1ccc2c(c1)sc1nc(-c3ccccc3)c(COCCCCCCCCCCn3c([N+](=O)[O-])cnc3C)n12       µg/mL             512
3  CCOc1ccc2c(c1)sc1nc(-c3ccccc3)c(COCCCCCBr)n12       µg/mL              64
4  Cc1ncc([N+](=O)[O-])n1CCCOCc1c(-c2ccccc2)nc2sc3ccccc3n12       µg/mL               8
5        OC(Cn1cncn1)(Cn1cncn1)c1ccc(F)cc1F       µg/mL             256

Lookup result for BrCCCCCCCCCCOCc1c(-c2ccccc2)nc2sc3ccccc3n12 ; measured MIC: 16

Briefly, MIC measured for CCOc1ccc2c(c1)sc1nc(-c3ccccc3)c(COCCCn3cnc([N+](=O)[O-])c3)n12 : 32

Per the records, this molecule ( CCOc1ccc2c(c1)sc1nc(-c3ccccc3)c(COCCCBr)n12 ) has MIC equal to 512

MIC measured on CCOc1ccc2c(c1)sc1nc(-c3ccccc3)c(COCCCn3c([N+](=O)[O-])cnc3C)n12 = 64

Input BrCCCOCc1c(-c2ccccc2)nc2sc3ccccc3n12 . Output MIC: 4

MIC recorded for this molecule, O=[N+]([O-])c1cn(CCCCCCCCCCOCc2c(-c3ccccc3)nc3sc4ccccc4n23)cn1 , is 128
